Recorded binding signal, one value per entry.
Target: PTBP2 (Homo sapiens, UniProt Q9UKA9)
Sequence (Q9UKA9 40-531): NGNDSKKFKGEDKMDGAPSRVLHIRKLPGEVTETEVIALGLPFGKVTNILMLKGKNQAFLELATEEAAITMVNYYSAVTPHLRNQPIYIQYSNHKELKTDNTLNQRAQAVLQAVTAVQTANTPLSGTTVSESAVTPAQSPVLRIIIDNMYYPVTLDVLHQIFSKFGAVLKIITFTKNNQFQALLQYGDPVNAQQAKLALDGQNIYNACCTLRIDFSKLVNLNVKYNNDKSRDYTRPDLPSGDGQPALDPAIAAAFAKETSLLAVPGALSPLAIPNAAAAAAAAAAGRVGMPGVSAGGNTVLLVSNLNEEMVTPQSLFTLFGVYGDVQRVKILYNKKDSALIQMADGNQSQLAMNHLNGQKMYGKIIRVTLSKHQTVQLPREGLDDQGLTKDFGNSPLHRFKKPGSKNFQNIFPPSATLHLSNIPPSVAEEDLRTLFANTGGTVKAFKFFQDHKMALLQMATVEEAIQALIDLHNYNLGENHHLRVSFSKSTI
Assay: protein domain microarray probed with biotinylated miRNA; Domain array: 20 mM Tris-HCl pH 7.4, 200 mM KCl, 0.2 mM EDTA, 0.05% NP40, 2 ug/ul heparin, overnight 4 C. ORF array: PBS pH 7.0 with RNase inhibitor, 100 ng RNA; high values mean tight binding
Settings: ssRNA
result.type: binding signal

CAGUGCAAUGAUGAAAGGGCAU    55.4 fluorescence intensity
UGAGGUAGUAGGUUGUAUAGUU    49.5 fluorescence intensity
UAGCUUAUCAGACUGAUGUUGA    23.2 fluorescence intensity
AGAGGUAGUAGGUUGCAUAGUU    96.6 fluorescence intensity

----------
The following sequences are shown together with reported binding signal values.
Molecular target: PABPNL1 (Homo sapiens, UniProt A6NDY0)
Sequence: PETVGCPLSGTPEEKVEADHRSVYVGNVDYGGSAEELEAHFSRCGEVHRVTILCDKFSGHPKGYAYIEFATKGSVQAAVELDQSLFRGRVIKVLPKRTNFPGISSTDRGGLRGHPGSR
Test: protein domain microarray probed with biotinylated miRNA; Domain array: 20 mM Tris-HCl pH 7.4, 200 mM KCl, 0.2 mM EDTA, 0.05% NP40, 2 ug/ul heparin, overnight 4 C. ORF array: PBS pH 7.0 with RNase inhibitor, 100 ng RNA; high values mean tight binding
Details: ssRNA
result.type: binding signal

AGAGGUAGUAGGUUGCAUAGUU    1510 fluorescence intensity
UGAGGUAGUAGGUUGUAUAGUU    531 fluorescence intensity
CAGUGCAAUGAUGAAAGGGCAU    2030 fluorescence intensity
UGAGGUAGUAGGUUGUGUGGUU    1610 fluorescence intensity

----------
Biological target: SAFB2 (Homo sapiens)
Sequence (Q14151 380-500): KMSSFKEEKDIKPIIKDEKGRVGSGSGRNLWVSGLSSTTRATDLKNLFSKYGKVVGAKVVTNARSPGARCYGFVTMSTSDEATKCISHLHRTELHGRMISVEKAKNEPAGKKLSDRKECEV
Assay: protein domain microarray probed with biotinylated miRNA; Domain array: 20 mM Tris-HCl pH 7.4, 200 mM KCl, 0.2 mM EDTA, 0.05% NP40, 2 ug/ul heparin, overnight 4 C. ORF array: PBS pH 7.0 with RNase inhibitor, 100 ng RNA; high values mean tight binding
Details: ssRNA
Each item that follows carries a reported binding signal.
result.type: binding signal

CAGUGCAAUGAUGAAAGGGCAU    298 fluorescence intensity
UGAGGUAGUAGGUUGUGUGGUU    827 fluorescence intensity
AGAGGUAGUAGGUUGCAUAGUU    328 fluorescence intensity
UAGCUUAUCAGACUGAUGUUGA    54.6 fluorescence intensity

----------
Target: CIRBP (Homo sapiens)
Sequence: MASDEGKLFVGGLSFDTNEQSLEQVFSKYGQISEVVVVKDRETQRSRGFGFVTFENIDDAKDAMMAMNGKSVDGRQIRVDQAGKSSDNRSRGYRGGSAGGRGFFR
Assay: protein domain microarray probed with biotinylated miRNA; Domain array: 20 mM Tris-HCl pH 7.4, 200 mM KCl, 0.2 mM EDTA, 0.05% NP40, 2 ug/ul heparin, overnight 4 C. ORF array: PBS pH 7.0 with RNase inhibitor, 100 ng RNA; high values mean tight binding
Conditions: ssRNA
result.type: binding signal (fluorescence intensity)

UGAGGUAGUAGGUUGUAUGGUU    1980
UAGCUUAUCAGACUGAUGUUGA    801
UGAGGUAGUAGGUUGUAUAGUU    1010
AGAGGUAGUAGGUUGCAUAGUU    2620

----------
Biological target: DAZL (Homo sapiens)
Sequence: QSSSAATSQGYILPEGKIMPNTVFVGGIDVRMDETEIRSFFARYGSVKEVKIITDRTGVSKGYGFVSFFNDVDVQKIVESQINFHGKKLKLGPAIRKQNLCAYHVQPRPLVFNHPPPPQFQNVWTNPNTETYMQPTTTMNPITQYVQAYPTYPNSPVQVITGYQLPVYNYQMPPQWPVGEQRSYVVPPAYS
Test: protein domain microarray probed with biotinylated miRNA; Domain array: 20 mM Tris-HCl pH 7.4, 200 mM KCl, 0.2 mM EDTA, 0.05% NP40, 2 ug/ul heparin, overnight 4 C. ORF array: PBS pH 7.0 with RNase inhibitor, 100 ng RNA; high values mean tight binding
Details: ssRNA
result.type: binding signal (fluorescence intensity)

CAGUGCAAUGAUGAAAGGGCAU    42.2
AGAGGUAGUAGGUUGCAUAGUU    362
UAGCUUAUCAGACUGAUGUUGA    238
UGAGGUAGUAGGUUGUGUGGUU    433

----------
Target: TRA2A (Homo sapiens, UniProt Q13595)
Sequence: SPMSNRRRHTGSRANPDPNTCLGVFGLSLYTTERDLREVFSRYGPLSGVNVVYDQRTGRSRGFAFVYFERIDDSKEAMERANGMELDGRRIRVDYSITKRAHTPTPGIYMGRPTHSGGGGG
Assay: protein domain microarray probed with biotinylated miRNA; Domain array: 20 mM Tris-HCl pH 7.4, 200 mM KCl, 0.2 mM EDTA, 0.05% NP40, 2 ug/ul heparin, overnight 4 C. ORF array: PBS pH 7.0 with RNase inhibitor, 100 ng RNA; high values mean tight binding
Settings: ssRNA
result.type: binding signal (fluorescence intensity)

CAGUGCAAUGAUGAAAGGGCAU    126
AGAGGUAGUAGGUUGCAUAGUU    230
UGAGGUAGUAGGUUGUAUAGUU    25
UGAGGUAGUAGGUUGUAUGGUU    311

----------
Reported binding signal values are given for each entry in this list.
Biological target: RBM35A (Homo sapiens, UniProt Q6NXG1)
Sequence: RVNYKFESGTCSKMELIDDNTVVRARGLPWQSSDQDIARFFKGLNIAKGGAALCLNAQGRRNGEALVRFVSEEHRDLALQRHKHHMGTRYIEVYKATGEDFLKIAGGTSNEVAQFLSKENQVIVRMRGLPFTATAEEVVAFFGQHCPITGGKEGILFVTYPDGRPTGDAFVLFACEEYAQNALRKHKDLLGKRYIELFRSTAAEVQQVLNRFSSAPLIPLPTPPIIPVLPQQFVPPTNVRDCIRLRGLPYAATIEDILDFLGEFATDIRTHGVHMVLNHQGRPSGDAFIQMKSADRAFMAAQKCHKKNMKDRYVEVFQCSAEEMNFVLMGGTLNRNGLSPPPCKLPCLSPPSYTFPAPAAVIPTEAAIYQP
Assay: protein domain microarray probed with biotinylated miRNA; Domain array: 20 mM Tris-HCl pH 7.4, 200 mM KCl, 0.2 mM EDTA, 0.05% NP40, 2 ug/ul heparin, overnight 4 C. ORF array: PBS pH 7.0 with RNase inhibitor, 100 ng RNA; high values mean tight binding
Settings: ssRNA
result.type: binding signal (fluorescence intensity)

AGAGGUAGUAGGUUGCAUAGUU    2590
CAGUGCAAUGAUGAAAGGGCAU    1310
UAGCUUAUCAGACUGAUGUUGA    26.4
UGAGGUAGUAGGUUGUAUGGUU    1320

----------
Target: CNOT4 (Homo sapiens, UniProt O95628)
Sequence: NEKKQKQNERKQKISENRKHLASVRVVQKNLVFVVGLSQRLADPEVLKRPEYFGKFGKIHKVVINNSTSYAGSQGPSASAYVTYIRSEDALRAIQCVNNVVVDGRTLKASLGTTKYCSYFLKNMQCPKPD
Test: protein domain microarray probed with biotinylated miRNA; Domain array: 20 mM Tris-HCl pH 7.4, 200 mM KCl, 0.2 mM EDTA, 0.05% NP40, 2 ug/ul heparin, overnight 4 C. ORF array: PBS pH 7.0 with RNase inhibitor, 100 ng RNA; high values mean tight binding
Settings: ssRNA
result.type: binding signal (fluorescence intensity)

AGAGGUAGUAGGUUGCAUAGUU    230
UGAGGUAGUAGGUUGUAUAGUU    73.8
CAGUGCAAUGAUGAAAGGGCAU    235
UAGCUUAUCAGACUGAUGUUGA    35
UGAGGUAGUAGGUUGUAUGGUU    264

----------
Target: HNRNPCP5 (Homo sapiens, UniProt B2RXH8)
Sequence (B2RXH8 1-110): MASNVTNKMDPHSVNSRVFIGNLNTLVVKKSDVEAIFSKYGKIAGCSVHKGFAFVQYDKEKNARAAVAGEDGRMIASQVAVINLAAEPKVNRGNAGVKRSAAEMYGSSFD
Experiment: protein domain microarray probed with biotinylated miRNA; Domain array: 20 mM Tris-HCl pH 7.4, 200 mM KCl, 0.2 mM EDTA, 0.05% NP40, 2 ug/ul heparin, overnight 4 C. ORF array: PBS pH 7.0 with RNase inhibitor, 100 ng RNA; high values mean tight binding
Settings: ssRNA
binding signal by entry:
result.type: binding signal (fluorescence intensity)

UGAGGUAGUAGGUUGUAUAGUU    24.6
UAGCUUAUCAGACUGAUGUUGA    23.4
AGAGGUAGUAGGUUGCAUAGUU    48
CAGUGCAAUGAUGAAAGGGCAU    42.4

----------
Below, each entry is listed alongside its reported binding signal.
Molecular target: STAU2(4) (Homo sapiens)
Sequence: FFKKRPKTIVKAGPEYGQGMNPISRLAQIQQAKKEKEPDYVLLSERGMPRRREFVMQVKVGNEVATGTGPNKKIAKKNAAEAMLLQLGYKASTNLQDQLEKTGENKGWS
Experiment: protein domain microarray probed with biotinylated miRNA; Domain array: 20 mM Tris-HCl pH 7.4, 200 mM KCl, 0.2 mM EDTA, 0.05% NP40, 2 ug/ul heparin, overnight 4 C. ORF array: PBS pH 7.0 with RNase inhibitor, 100 ng RNA; high values mean tight binding
Conditions: ssRNA
result.type: binding signal

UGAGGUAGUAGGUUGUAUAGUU    31.3 fluorescence intensity
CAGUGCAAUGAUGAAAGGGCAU    92.5 fluorescence intensity
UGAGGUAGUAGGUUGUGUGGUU    276 fluorescence intensity
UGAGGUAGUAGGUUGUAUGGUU    168 fluorescence intensity

Source: paper PMC11574364
